System: NCI-H522 lung
Assay Text: NCI tumour cell line growth inhibition, 48 h
# TGI annotations

{"Input Smiles": "N#Cc1[nH]c(=O)n(-c2ccc([N+](=O)[O-])cc2)c1N", "Observable": "TGI", "Observed Measurement": "> 10 µM"}
{"Input Smiles": "O=C(Cn1ccnc1[N+](=O)[O-])N(CCO)CCO", "Observable": "TGI", "Observed Measurement": "> 1250 µM"}
{"Input Smiles": "O=C(NCc1cn(Cc2cccc(Oc3ccccc3)c2)nn1)c1cccnc1Nc1ccccc1", "Observable": "TGI", "Observed Measurement": "5.06 µM"}
{"Input Smiles": "CN(NC(=O)c1ccco1)C1=NCCCCN1", "Observable": "TGI", "Observed Measurement": "> 100 µM"}
{"Input Smiles": "CN(C)[C@@H]1C(=O)C(C(N)=O)=C(O)[C@@]2(O)C(=O)C3=C(O)c4c(O)cccc4C[C@H]3C[C@@H]12", "Observable": "TGI", "Observed Measurement": "4.29 µM"}

// moving on: another record for TGI
Need TGI of `CC(=O)O[C@]1(C(C)=O)CC[C@H]2[C@@H]3C[C@H](C)C4=CC(=O)C=C[C@]4(C)[C@@]3(F)[C@@H](O)C[C@@]21C` , thanks. > 100 µM
